Values were extracted from patent US20220220218A1.

Below is a list of entries, each paired with its recorded koff value.
- target: T1, human CD73 (huCD73) protein, antigen of the Biacore assay (human, UniProt P21589 27-547, limits assumed)
- T1 construct: also called human CD73 antigen
- T1 sequence (looked up): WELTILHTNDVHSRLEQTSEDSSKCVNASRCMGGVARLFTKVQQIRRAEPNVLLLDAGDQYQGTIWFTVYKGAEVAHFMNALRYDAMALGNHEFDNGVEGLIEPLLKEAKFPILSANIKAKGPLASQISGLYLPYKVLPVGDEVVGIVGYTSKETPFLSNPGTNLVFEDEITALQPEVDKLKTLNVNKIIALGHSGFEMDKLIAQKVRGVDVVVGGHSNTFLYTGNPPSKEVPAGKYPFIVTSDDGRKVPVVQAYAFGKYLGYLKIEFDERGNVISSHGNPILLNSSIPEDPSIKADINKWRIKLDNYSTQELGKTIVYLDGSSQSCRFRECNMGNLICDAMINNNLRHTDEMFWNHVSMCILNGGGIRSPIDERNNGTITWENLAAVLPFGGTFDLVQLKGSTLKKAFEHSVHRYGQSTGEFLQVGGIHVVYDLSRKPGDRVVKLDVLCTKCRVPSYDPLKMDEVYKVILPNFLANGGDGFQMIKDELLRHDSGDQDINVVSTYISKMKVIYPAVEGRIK
- procedure-details: SPR Biacore T200; antibody captured on Protein A chip, CD73 in flow; 1:1 Langmuir
Give a bare numeral; the unit s⁻¹ is implied.

binder	quantitative-readout
Hab127.44 (antibody, V domains shown, VL4 + VH4; recombined with human heavy and light constant regions) VH: EVQLVQSGAEVKKPGASVKVSCKASGYTFTAYFMNWVMQAPGQSLEWIGRIYHNNGDTFYSQKFKGRATLTVDKSTSTVYMELRSLRSEDTAVYYCATSYVGDWGQGTTVTVSS VL: DIQMTQSPSSLSASVGDRVTITCRASQDIGDSLNWLQQKPGGALKRLIYATSSLDSGVPSRFSGSGSGSDYTLTISSLQPEDFATYYCLQYASFPWTFGGGTKVEIK	4.15e-05
Hab108.52 (antibody, V domains shown, VL5 + VH2; full-length antibody) VH: EVTLKESGPVLVKPTETLTLTCTVSGFSLSSYGIQWIRQPPGKLLEWLAVIWSGGSADYNAAFISRLTISKDTSKSQVVLTMTNMDPVDTATYYCAGQYGSVWGQGTLVTVSS VL: DIQMTQSPSSLSASVGDRVTITCRASQDIGDRLNWLQQKPGKAIKRLIYATSSLDSGVPKRFSGSGSGTEYTLTISSLQPEDFATYYCLQYAGSWTFGGGTKVEIK	0.000241

// switching to the query binder
In: I would be grateful if you could share the reported koff for Hab127.31e (antibody, V domains shown, VL3 + VH1e, HCDR2 hot-spot variant; full-length antibody) VH: EVQLVQSGAEVKKPGASVKVSCKASGYTFTAYFMNWVRQAPGQGLEWMGRIYHNEGDTFYSQKFKGRVTMTVDKSTSTVYMELSSLRSEDTAVYYCATSYVGDWGQGTTVTVSS VL: DIQMTQSPSSLSASVGDRVTITCRASQDIGDSLNWLQQKPGGALKRLIYATSSLDSGVPSRFSGSGSGTEYTLTISSLQPEDFATYYCLQYASFPWTFGGGTKVEIK .
Out: 3.75e-05
